# maps each entry to its GI50
Tested on: SF-295
Assay: NCI tumour cell line growth inhibition, 48 h
Calls of active or inactive are those of the source. Rule as the data show it: active = GI50 up to about 1.1 µM and inactive = higher.

compound	experimental-system	GI50
Clc1ccc(Nc2nnc(CCCCCCCCc3nnc(Nc4ccc(Cl)cc4)o3)o2)cc1	SF-295	35.8 µM (inactive)
COc1ccccc1NC(=S)NN=C(C)c1cccc(C(C)=NNC(=S)Nc2ccccc2OC)n1	SF-295	26.8 µM (inactive)
COc1ccccc1-c1nc[nH]c1-c1ccccc1OC	SF-295	26 µM (inactive)
O=CN/C=C\c1cc(O)ccc1O	SF-295	28.4 µM (inactive)
C=CCC(CNC(=O)OCc1ccccc1)O[Si](C)(C)C(C)(C)C (stereo unspecified)	SF-295	35.2 µM (inactive)
Cc1cc(=O)oc2cc(OCc3c(F)cccc3Cl)ccc12	SF-295	17.5 µM (inactive)
CN1C(=O)c2c(c3c4ccccc4n(C)c3c3c2c2ccccc2n3C)C1=O	SF-295	> 100 µM (inactive)
OCC1OC(c2scc3c(=S)[nH]cnc23)C(O)C1O (stereo unspecified)	SF-295	29 µM (inactive)
CCC(C#N)N(Cc1ccc(CN(C(=O)c2ccccc2)C(C#N)CC)cc1)C(=O)c1ccccc1 (stereo unspecified)	SF-295	17.6 µM (inactive)
CCOc1ccccc1Nc1ccc(N)cc1S(=O)(=O)O	SF-295	> 100 µM (inactive)
COC(=O)[C@@H]1C(=O)O[C@@H](c2ccc3c(c2)OCO3)[C@@H]1C(=O)OC.COC(=O)[C@H]1C(=O)O[C@@H](c2ccc3c(c2)OCO3)[C@@H]1C(=O)OC	SF-295	> 100 µM (inactive)

###

Tested on: SW-620
Experiment: NCI tumour cell line growth inhibition, 48 h
Activity calls are given as the source filed them. No stated cut-off is given here; in the data, active = GI50 up to about 1.1 µM and inactive = higher.
Possible outcomes: t for active, f for inactive

compound	assigned-category
Clc1cccc(-c2nc3cccc4c3n2Cc2ncccc2-4)c1	f
O=C(NCCOCCO)c1ccc(O)cc1	f
CN(C)/C=C/C=C(/C=N/S(=O)(=O)C(F)(F)F)C1C=CN(S(=O)(=O)C(F)(F)F)C=C1	f
CNC(=O)SCC(NC(=O)CCC(N)C(=O)O)C(=O)NCC(=O)O (stereo unspecified)	f
O=c1[nH]c(=O)n(COCCOCc2ccccc2)cc1Nc1ccccc1	f
CC1(C)CCCCCCCCCC2CC2CCC(C)(C)C1=O (stereo unspecified)	f
CS(=O)(=O)NNS(=O)(=O)c1ccc(F)cc1	f
COc1ccc(N2CCN(c3ccc4c(c3)NCC(=O)N4)CC2)cc1	f
O=C1c2ccccc2C(=O)c2c(NCCNC(=O)C3CCCN3)ccc(NCCNC(=O)C3CCCN3)c21 (stereo unspecified)	f
Cc1c2c(nc3ccccc13)C(=O)c1cccnc1C2=O	f
O=C1c2ccccc2C2(O)Nc3c(ccc4ccccc34)C12O (stereo unspecified)	f
Cc1nc2c(C)ccc([N+](=O)[O-])c2c(NCCCN(C)C)c1C	f
[BH3-][P+]1(CC[P@@+]([BH3-])(c2ccccc2)c2ccccc2OC)[C@@H](C)[C@@H](O)[C@H](O)[C@@H]1C (stereo partly specified)	f
Cc1nc(N)c(N2CCN(Cc3ccccc3)CC2)c(O)n1	f
N=C1N(/N=C/c2ccccn2)/C(=N\c2ccccc2)C(=S)N1c1ccccc1	f
N#CCCN(CCC#N)c1ccc(/C=C2\N=C(c3ccccc3)N(NC(N)=S)C2=O)cc1	f
COC(=O)C1CC23C4=C(CCC41)CCC1CN4CC(C)C(CC(OC(C)=O)C12COC(C)=O)C43O (stereo unspecified)	f
COc1cc(C2C3=C(COC3=O)OC(C)(C)Oc3cc4c(cc32)OCO4)cc(OC)c1O (stereo unspecified)	t
CC(C)CCNC(=O)c1ccc(CNC(=O)/C=C/c2ccc3ccccc3c2)cc1	f
Cc1nc2ccc(NC3OCC(O)C(O)C3O)cc2c(=O)n1-c1ccccc1 (stereo unspecified)	f
Cc1ccc(NC(=O)C(=O)C2C(=O)N(c3ccccc3)N=C2N)cc1C (stereo unspecified)	f
